Target: T1, HTRA4, P83105
T1 sequence (P83105 378-476, limits assumed, looked up): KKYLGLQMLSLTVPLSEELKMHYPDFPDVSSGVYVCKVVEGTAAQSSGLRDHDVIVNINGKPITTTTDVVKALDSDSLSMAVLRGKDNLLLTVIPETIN
Test: holdup assay
Design: key: below the threshold = too weak to quantify, mostly under pKd 3.1 to 4
Conditions: plain residues with an end cap or a label only (N-terminal biotin on a linker: ado-ado)
ENDPOINT_NAME: pKd

| BINDER | ENDPOINT_NAME | DATA_VALUE |
| --- | --- | --- |
| DRIQSCLSDA [SBF1, O95248] | pKd | below the threshold |
| ARESQKVSHV [FAM110B, Q8TC76] | pKd | 4.1 |
| AEASVACSLC [PTGIR, P43119] | pKd | below the threshold |
| EDPRVEVTQF [SLC22A9, Q8IVM8] | pKd | below the threshold |
| DDASLPVSDV [PLEKHA1, Q9HB21] | pKd | below the threshold |

Next binder, please.
Q) So what's the measured pKd for this one? SFISKKEWYV [NECTIN1, Q15223]
A) below the threshold
